Sequence of the target: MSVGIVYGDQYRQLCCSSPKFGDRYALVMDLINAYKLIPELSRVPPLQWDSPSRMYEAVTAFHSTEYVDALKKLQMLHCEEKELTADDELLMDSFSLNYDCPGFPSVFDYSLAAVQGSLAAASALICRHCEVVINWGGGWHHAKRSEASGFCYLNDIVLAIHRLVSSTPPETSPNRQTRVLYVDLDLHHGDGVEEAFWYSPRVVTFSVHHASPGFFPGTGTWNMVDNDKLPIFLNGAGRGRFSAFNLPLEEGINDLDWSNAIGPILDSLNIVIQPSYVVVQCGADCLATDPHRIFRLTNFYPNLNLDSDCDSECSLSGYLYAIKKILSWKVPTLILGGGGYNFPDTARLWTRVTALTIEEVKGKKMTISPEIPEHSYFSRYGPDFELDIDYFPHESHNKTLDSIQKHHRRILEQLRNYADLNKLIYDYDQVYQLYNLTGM
Response field label takes Condition met when IC50 is strictly below 300 nM and Condition not met in all other cases.

> print(dat)
                             chemical.smiles   class.assignment
 1  CSc1ccc(C(=O)NO)cc1NC(=O)c1ccc(-c2ccccc2)cc1      Condition met
 2  O=C(NO)c1ccc(Cl)c(NC(=O)c2ccc(-c3ccc(F)cc3)cc2Cl)c1      Condition met
 3  COc1ccc(C(=O)NO)cc1NC(=O)c1ccc(-c2ccc(F)cc2)cc1Cl  Condition not met
 4      Cc1ccc(C(=O)NO)cc1C(=O)Nc1ccc(Cl)cc1  Condition not met
 5   CCCOc1ccc(C(=O)Nc2cc(C(=O)NO)ccc2OC)cc1  Condition not met
 6     COc1ccc(C(=O)NO)cc1C(=O)Nc1cccc(Cl)c1      Condition met
 7  COc1ccc(C(C)=O)cc1NC(=O)c1cc(C(=O)NO)ccc1OC      Condition met
 8  O=C(NO)c1ccc(Cl)c(NC(=O)c2ccc(-c3ccccc3)cc2)c1  Condition not met
 9   COc1ccc(C(=O)NO)cc1NC(=O)c1cccc2cccnc12  Condition not met
10  COc1ccc(C(=O)NO)cc1NCc1cccc2c1oc1ccccc12  Condition not met
11    COc1ccc(C(=O)NO)cc1C(=O)Nc1ccc2sccc2c1      Condition met
12  COc1ccc(C(=O)NO)cc1NC(=O)c1ccc(-c2ccccc2)cc1Cl      Condition met
13  COc1ccc(C(=O)Nc2cc(C(=O)NO)ccc2OC)c(OC)c1  Condition not met
14  COc1ccc(C(=O)NO)cc1NC(=O)c1cccc2c1oc1ccccc12      Condition met
15  COc1ccc(C(=O)NO)cc1NC(=O)c1ccc2[nH]c3c(c2c1)CN(C)CC3.Cl      Condition met
16  COc1ccc(C(C)=O)cc1NC(=O)c1cc(C(=O)NO)ccc1Cl      Condition met
17  COc1ccc(C(=O)NO)cc1NC(=O)c1ccc(-c2ccccc2)cc1      Condition met
